Measured values drawn from patent US12012446B2 for this set.

- SUBJECT_OF_TEST: T1, purified EBV gp350/220 (recombinant EBV gp350 ectodomain) (Epstein-Barr virus, UniProt P03200)
- T1 construct: purified EBV gp350 ectodomain protein (AA 4-863); purchased Immune Technology Corporation
- PROTOCOL_DESCRIPTION: Indirect ELISA on recombinant EBV gp350 ectodomain
- Type: binding
- SETUP_CONDITIONS: purified antibodies 10 μg/ml

MOLECULE: m72A1: EBV anti-gp350 neutralizing mouse antibody purified from HB168 hybridoma (ATCC); SEQ ID NO: 100 / 101 (antibody, V domains shown, heavy chain mAb 72A1; light chain mAb 72A1) VH: PELVKPGTSMKISCKASGSSFTDYTMNWMKQSHGKNLEWIGLINPYNGGTRYNQKFKGKATLTLDKSSSTAYMEVLSLTSEDSAVYYCAGGLRRVNWFAYWGQGTLVSVSAAKTTPPSVYPLAPGSAAQTNSMVTLG VL: QAVLTQESALTTSPGETVTLTCRSSTGAVTTSNYANWVQEKPDHLFTGLIGGTNNRVPGVPARFSGSLIGDKAALTITGAQTEDEAIYFCVLWHSNHWVFGGGTKLTVL
ELISA binding to purified EBV gp350/220: +
--
MOLECULE: HB14: murine anti-EBV gp350 mAb, IgG1 κ; SEQ ID NO: 124 / 125 (antibody, V domains shown, heavy chain mAb HB14; light chain mAb HB14) VH: SGAELVRPGASVNLSCKALGYTFTDYEMHWVKQTPVYGLEWIGTIHPRRGGTAYNQRFKGKAALTADKSSSTAYMELSSLTSEDSAVYYCARYGYPWYFDVWGAGTTVTVSS VL: LSLPVSLGDQASISCRSSQSIVHDNGNTYLEWYLQKPGQSPKLLIYKVSNRFSGVLDKFSGSGSGTDFTLKISRVEAEDLGIYYCFQGSHVPPTFGGGTKLEIK
ELISA binding to purified EBV gp350/220: +
--
MOLECULE: HB3: murine anti-EBV gp350 mAb, IgG2a κ; SEQ ID NO: 106 / 107 (antibody, V domains shown, heavy chain mAb HB3; light chain mAb HB3) VH: AELVRPGASVKLSCKASGYTFASYWMQWVKQWPGQGLEWIGEINPNNGHTNYNERFKNKASLTVDKSSSTAYMQLSSLTSEDSAVYYCARNLYYYGRPDYWGQGTSVTVSSAKTTAPSVYPLAPVCGDTTGSSVTLG VL: SSLSASLGDRVTISCRASQDIGNYLNWYQQKPDGTIKLLIYYTSRLHSGVPSRFSGSGSGTDYSLTISNLEEEDIATYFCQQGNTLPPTFGGGTKLEIKRADAAPTV
ELISA binding to purified EBV gp350/220: +
